# SYSTEM_UNDER_TEST: HLA-A*0203 (Human)
# ASSAY_NAME: competition vs 125I probe, purified HLA
# RUN_CONDITIONS: remark: other sources report otherwise
Non-standard residues stand in square brackets, D forms with d. No end group written: not given here. Abu = CC[C@H](N)C(=O)O
VALUE_KIND: pIC50
For clarity, pIC50 is expressed as the negative log10 of concentration in mol/L.

The binder listed as KMF[Abu]QLAKV [p53.132B4V9 KMFBQLAKV] has a reported pIC50 of 8.04
